Recorded values, source ChEMBL document CHEMBL1134303.

pIC50: −log10 of the molar value.
measured quantity: pIC50

Record for CCC(CC)[C@H](NC(C)=O)[C@@H]1[C@H](O)[C@@H](C(=O)O)C[C@H]1NC(=N)N [PERAMIVIR ANHYDROUS] under target or system Neuraminidase (Influenza A virus (A/Puerto Rico/8/1934(H1N1)), UniProt P03468): pIC50 reported as > 9.00

Record for `CCC(CC)[C@H](NC(C)=O)[C@@H]1C[C@@H](C(=O)O)C[C@H]1N=C(N)N` under target or system Neuraminidase (Influenza A virus (A/Puerto Rico/8/1934(H1N1)), UniProt P03468): pIC50 reported as > 9.00
